Values compiled from PubChem BioAssay (NCI).

# Tested on: MDA-MB-468 breast
# TEST_DETAILS: NCI-60 one-dose screen, 48 h
# ASSAY_CONDITIONS: 10 µM unless noted
The panel holds about 83,000 compounds, 20% with a hit somewhere; the sample as a whole holds those more often. Active and inactive are the calls of the source. Rule for the calls: active = growth percent below 10; inactive = the rest.
Select the correct class. Options are label 1 for active, label 0 for inactive and nothing else.

- COMPOUND: "O=C1C2CC3C(CC2C(=O)[N]1[Sn]([c]1ccccc1)([c]1ccccc1)[c]1ccccc1)C1(Cl)C(Cl)=C(Cl)C3(Cl)C1(Cl)Cl (centres undefined)"
  CLASS: "label 1"
- COMPOUND: "CC(C)N1CCN(c2ccncc2S(=O)(=O)N2CCN(C)CC2)CC1"
  CLASS: "label 0"
- COMPOUND: "CCn1cc(-c2[nH]c(=S)ncc2-c2ccc(Cl)cc2)c(-c2ccc(Br)cc2)n1"
  CLASS: "label 0"
- COMPOUND: "COc1cc(-c2cc(-c3ccc(N(C)C)cc3)nc(N3CCC(O)CC3)c2C#N)cc(OC)c1OC"
  CLASS: "label 1"
- COMPOUND: "COc1ccc2c(c1)nnn1c3ncccc3c(N=O)c21"
  CLASS: "label 1"
- COMPOUND: "O=C(Nc1ccc(Nc2ccncc2)cc1)c1ccc(Nc2ccnc3ccc([N+](=O)[O-])cc23)cc1[N+](=O)[O-]"
  CLASS: "label 0"
- COMPOUND: "Cc1ccc(CNc2ccc3nc(CCC(C)C)[nH]c3c2)cc1"
  CLASS: "label 0"
- COMPOUND: "Cc1cc(N2CCSCC2)nc(NC2CCCC(Nc3ccnc4cc(Cl)ccc34)C2)n1 (centres undefined)"
  CLASS: "label 1"

[in] // param item: "N=c1c2cc(-c3ccccc3)oc2ncn1/N=C/c1ccc(Cl)cc1" ; yields the recorded call
[out] label 0
